src = ChEMBL document CHEMBL5661976

test system: HCC827; assay: cells; assay type: functional, cell-based; conditions: Homo sapiens, HCC827, 72 h
Description: Antiproliferative activity against human HCC827 cells harboring EGFR Del E746_A750 mutant transfected with ERBB2 Ins 774YVMA assessed as inhibition of cell growth incubated for 72 hrs by MTS assay
ATTRIBUTE_MEASURED: pIC50
Interpret pIC50 as the negative base-10 log of the concentration measured in mol/L.

-- ask Return pIC50 (reported value) for this compound: COc1cc2ncnc(Nc3ccc(F)c(Cl)c3)c2cc1NC(=O)/C=C/CN1CCCCC1 [DACOMITINIB ANHYDROUS]
-- reply 7.08

###

molecular target: Cyclin-dependent kinase 4/cyclin D (Homo sapiens); assay: Inhibition of recombinant CDK4/Cyclin D (unknown origin)
ATTRIBUTE_MEASURED: IC50

-- ask Consider the molecule COc1cc2ncnc(Nc3ccc(F)c(Cl)c3)c2cc1NC(=O)/C=C/CN1CCCCC1 [DACOMITINIB ANHYDROUS] . State its measured IC50.
-- reply > 40 µM

###

test system: HCC827; experiment: Antiproliferative activity against human HCC827 cells harboring EGFR Del E746_A750 mutant transfected with GFP assessed as inhibition of cell growth incubated for 72 hrs by MTS assay; assay type: functional, cell-based; settings: HCC827, 72 h
ATTRIBUTE_MEASURED: IC50 (nM)
Respond numerically; units are nM and should not be typed.

-- ask Answer with the recorded IC50 of COc1cc2ncnc(Nc3ccc(F)c(Cl)c3)c2cc1NC(=O)/C=C/CN1CCCCC1 [DACOMITINIB ANHYDROUS] only.
-- reply 2

###

molecular target: Insulin-like growth factor 1 receptor (Homo sapiens); assay: Inhibition of recombinant IGF1R (unknown origin)
Sequence (P08069 31-736 limits assumed): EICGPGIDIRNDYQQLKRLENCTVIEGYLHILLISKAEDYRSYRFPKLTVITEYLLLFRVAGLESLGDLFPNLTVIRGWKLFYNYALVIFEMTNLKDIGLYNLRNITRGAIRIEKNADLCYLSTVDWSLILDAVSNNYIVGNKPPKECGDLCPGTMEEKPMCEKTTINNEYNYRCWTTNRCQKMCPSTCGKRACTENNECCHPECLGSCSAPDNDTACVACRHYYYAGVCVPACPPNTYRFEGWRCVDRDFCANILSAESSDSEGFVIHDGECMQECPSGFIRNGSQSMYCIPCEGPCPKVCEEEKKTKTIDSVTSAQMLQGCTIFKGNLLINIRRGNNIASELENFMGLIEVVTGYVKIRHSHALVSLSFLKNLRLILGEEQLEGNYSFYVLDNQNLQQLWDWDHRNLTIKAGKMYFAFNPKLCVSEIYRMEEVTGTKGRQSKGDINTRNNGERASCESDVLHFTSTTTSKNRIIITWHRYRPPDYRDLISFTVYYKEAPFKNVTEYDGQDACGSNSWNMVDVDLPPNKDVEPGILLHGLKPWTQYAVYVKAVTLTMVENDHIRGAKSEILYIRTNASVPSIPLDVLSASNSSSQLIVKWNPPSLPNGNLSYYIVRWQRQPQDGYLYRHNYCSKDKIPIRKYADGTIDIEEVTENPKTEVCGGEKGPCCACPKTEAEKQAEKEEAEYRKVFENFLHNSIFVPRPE
Sequence (P08069 741-1367 limits assumed): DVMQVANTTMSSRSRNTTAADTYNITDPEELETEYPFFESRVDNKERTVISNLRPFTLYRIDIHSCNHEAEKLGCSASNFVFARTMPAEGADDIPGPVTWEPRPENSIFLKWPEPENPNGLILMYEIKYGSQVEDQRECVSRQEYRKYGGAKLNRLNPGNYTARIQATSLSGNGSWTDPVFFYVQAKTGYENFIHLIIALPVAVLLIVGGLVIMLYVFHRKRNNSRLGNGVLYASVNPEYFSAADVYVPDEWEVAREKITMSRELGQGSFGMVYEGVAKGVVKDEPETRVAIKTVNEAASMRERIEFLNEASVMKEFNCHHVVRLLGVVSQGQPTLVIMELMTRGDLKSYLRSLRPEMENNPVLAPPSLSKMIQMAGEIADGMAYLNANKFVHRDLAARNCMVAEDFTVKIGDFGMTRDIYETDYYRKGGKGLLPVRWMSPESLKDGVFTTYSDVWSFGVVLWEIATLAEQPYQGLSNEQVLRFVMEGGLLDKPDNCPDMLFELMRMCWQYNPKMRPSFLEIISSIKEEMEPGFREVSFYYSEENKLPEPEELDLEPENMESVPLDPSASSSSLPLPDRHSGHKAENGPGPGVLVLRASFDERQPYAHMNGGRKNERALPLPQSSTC
pIC50: −log10 of the molar value.
ATTRIBUTE_MEASURED: pIC50

-- ask Quick one: give measured pIC50 for COc1cc2ncnc(Nc3ccc(F)c(Cl)c3)c2cc1NC(=O)/C=C/CN1CCCCC1 [DACOMITINIB ANHYDROUS]
-- reply < 4.40

###

molecular target: Tyrosine-protein kinase Fes/Fps (Homo sapiens, UniProt P07332); test: Inhibition of recombinant FES (unknown origin)
Sequence (P07332 whole entry): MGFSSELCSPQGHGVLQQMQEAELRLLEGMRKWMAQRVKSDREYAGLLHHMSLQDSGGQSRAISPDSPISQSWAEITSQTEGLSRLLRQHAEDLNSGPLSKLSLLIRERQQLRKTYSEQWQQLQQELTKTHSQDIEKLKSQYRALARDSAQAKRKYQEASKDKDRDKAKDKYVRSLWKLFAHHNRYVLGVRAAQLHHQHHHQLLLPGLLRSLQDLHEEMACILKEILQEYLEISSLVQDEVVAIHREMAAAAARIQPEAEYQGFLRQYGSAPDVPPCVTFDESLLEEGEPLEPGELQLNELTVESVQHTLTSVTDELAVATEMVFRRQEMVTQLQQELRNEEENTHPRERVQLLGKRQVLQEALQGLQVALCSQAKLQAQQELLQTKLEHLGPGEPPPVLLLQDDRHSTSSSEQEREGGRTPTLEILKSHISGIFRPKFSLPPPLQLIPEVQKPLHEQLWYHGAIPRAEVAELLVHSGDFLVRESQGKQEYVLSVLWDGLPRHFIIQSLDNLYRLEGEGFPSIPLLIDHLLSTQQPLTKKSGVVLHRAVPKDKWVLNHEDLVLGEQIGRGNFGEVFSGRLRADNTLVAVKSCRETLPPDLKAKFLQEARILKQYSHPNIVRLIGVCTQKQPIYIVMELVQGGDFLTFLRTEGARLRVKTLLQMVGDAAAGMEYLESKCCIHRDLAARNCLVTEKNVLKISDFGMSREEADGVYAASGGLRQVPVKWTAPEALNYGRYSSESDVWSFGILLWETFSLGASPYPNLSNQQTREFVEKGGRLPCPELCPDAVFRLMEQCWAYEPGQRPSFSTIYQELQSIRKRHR
ATTRIBUTE_MEASURED: IC50

-- ask Give Tyrosine-protein kinase Fes/Fps (Homo sapiens, UniProt P07332) IC50 for the following compound: COc1cc2ncnc(Nc3ccc(F)c(Cl)c3)c2cc1NC(=O)/C=C/CN1CCCCC1 [DACOMITINIB ANHYDROUS]
-- reply > 40 µM

###

tested on: BaF3; assay: cells; type: functional, cell-based; conditions: Mus musculus, BaF3, 72 h
Description: Cytotoxicity against mouse BaF3 cells harboring EGFR Del L747_A750InsP/T790M mutant assessed as inhibition of cell growth incubated for 72 hrs by MTS assay
ATTRIBUTE_MEASURED: pIC50
pIC50 is defined as minus the log10 of a concentration measured in mol/L.

-- ask Give pIC50 for the following compound: COc1cc2ncnc(Nc3ccc(F)c(Cl)c3)c2cc1NC(=O)/C=C/CN1CCCCC1 [DACOMITINIB ANHYDROUS]
-- reply 6.62

###

molecular target: Wee1-like protein kinase (Homo sapiens, UniProt P30291); assay: Inhibition of recombinant Wee1 (unknown origin)
Sequence (P30291 whole entry): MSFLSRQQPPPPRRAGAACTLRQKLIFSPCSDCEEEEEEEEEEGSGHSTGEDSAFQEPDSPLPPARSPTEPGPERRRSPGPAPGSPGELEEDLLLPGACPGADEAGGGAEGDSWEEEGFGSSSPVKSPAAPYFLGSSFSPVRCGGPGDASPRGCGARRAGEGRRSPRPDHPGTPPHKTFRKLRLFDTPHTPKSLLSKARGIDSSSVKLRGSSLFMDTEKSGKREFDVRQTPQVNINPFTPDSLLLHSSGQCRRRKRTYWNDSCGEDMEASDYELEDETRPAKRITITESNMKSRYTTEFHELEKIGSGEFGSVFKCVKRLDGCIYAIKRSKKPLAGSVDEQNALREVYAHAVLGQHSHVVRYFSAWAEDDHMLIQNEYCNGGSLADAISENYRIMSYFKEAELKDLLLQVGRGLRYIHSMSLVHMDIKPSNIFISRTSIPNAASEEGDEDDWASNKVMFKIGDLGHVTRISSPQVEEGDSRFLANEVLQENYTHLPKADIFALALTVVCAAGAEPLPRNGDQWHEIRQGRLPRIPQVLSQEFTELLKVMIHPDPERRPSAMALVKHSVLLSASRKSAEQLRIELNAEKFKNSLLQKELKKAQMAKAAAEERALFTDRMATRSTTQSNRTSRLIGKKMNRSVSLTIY
ATTRIBUTE_MEASURED: IC50

-- ask # return recorded IC50 for entry COc1cc2ncnc(Nc3ccc(F)c(Cl)c3)c2cc1NC(=O)/C=C/CN1CCCCC1 [DACOMITINIB ANHYDROUS]
-- reply > 10 µM

###

system: PC-9; test: cells; format: functional, cell-based; details: Homo sapiens, PC-9, 72 h
Description: Antiproliferative activity against human PC-9 cells harboring EGFR Del E746_A750 mutant assessed as inhibition of cell growth incubated for 72 hrs by MTS assay
ATTRIBUTE_MEASURED: IC50

-- ask Identify IC50 associated with the molecule COc1cc2ncnc(Nc3ccc(F)c(Cl)c3)c2cc1NC(=O)/C=C/CN1CCCCC1 [DACOMITINIB ANHYDROUS]
-- reply 2 nM
